Tested on: Pseudomonas aeruginosa PA01
Assay: Serum MIC, broth micro-dilution
Assay type: cell-based
Details: Pseudomonas aeruginosa, PA01; 50% v/v mouse serum in Mueller Hinton II cation adjusted Broth, 35° C., 22 hours; Table 4; read-out: P. aeruginosa 01 Serum MIC
Experimental: In vitro antimicrobial activity of each compound was determined by measuring minimal inhibitor concentrations (MICs) using the broth micro-dilution technique as approved by the Clinical and Laboratory Standards Institute (CLSI) (Methods for Dilution Antimicrobial Susceptibility Tests for Bacteria that Grow Aerobically; Approved Standard—Eighth Edition. CLSI document M07-A8. Wayne, Pa.: Clinical and Laboratory Standards; 2009). […]
Quantity: MIC (µM)

P = Cc1nc(-c2ccc3c(c2O)CCC3(C)C)nc(N)c1C(=O)N[C@@H](CNS(N)(=O)=O)C(=O)N(C)[C@@H]1C(=O)N[C@@H](C)C(=O)N[C@H](C(=O)O)Cc2ccc(OC[C@H](O)CN)c(c2)-c2cc1cc(OC[C@H](O)CN)c2O
Q = C[C@@H]1NC(=O)[C@@H](N(C)C(=O)[C@H](CNS(N)(=O)=O)NC(=O)c2cnn(-c3ccc(OCCC(C)(C)C)cc3)c(=O)c2)c2cc(OC[C@H](O)CN)c(O)c(c2)-c2cc(ccc2OC[C@H](O)CN)C[C@@H](C(=O)O)NC1=O
Task item: Task for the reader: decide whether P or Q has the larger MIC. Could you answer with the label of the item you picked?
Reply: Q

a = Cc1nc(N2CCC(C(C)(C)C)CC2)nc(N)c1C(=O)N[C@@H](CNS(N)(=O)=O)C(=O)N(C)[C@@H]1C(=O)N[C@@H](C)C(=O)N[C@H](C(=O)O)Cc2ccc(OC[C@H](O)CN)c(c2)-c2cc1cc(OC[C@H](O)CN)c2O
b = C[C@@H]1NC(=O)[C@@H](N(C)C(=O)[C@H](CCN)NC(=O)c2cnn(-c3ccc(OC4CCCCC4)cc3)c(=O)c2)c2cc(OC[C@H](O)CN)c(O)c(c2)-c2cc(ccc2OC[C@H](O)CN)C[C@@H](C(=O)O)NC1=O
c = Cc1nc(-c2ccc(C(C)(C)C)cc2C#N)nc(N)c1C(=O)N[C@@H](CNS(N)(=O)=O)C(=O)N(C)[C@@H]1C(=O)N[C@@H](C)C(=O)N[C@H](C(=O)O)Cc2ccc(OC[C@H](O)CN)c(c2)-c2cc1cc(OC[C@H](O)CN)c2O
d = C[C@@H]1NC(=O)[C@@H](N(C)C(=O)[C@H](CCN)NC(=O)c2cnn(-c3ccc(OCCC(C)(C)C)cc3)c(=O)c2)c2cc(OC[C@H](O)CN)c(O)c(c2)-c2cc(ccc2OC[C@H](O)CN)C[C@@H](C(=O)O)NC1=O
e = Cc1nc(-c2ccc(C(C)(C)C)cc2O)nc(N)c1C(=O)N[C@@H](CNS(N)(=O)=O)C(=O)N(C)[C@@H]1C(=O)N[C@@H](C)C(=O)N[C@H](C(=O)O)Cc2ccc(OC[C@H](O)CN)c(c2)-c2cc1cc(OC[C@H](O)CN)c2O
Task item: Arrange these compounds by their MIC, starting with the largest number. Respond with the label ranking, as requested.
Reply: b, d, a, c, e

* * *

Test system: Pseudomonas aeruginosa PA01
Test: Serum MIC, broth micro-dilution
Type: cell-based
Conditions: Pseudomonas aeruginosa, PA01; 50% v/v mouse serum; compounds of Table 1; Table 7; read-out: P. aeruginosa 01 Serum MIC
Protocol: In vitro antimicrobial activity of each compound was determined by measuring minimal inhibitor concentrations (MICs) using the broth micro-dilution technique as approved by the Clinical and Laboratory Standards Institute (CLSI) (Methods for Dilution Antimicrobial Susceptibility Tests for Bacteria that Grow Aerobically; Approved Standard—Eighth Edition. CLSI document M07-A8. Wayne, Pa.: Clinical and Laboratory Standards; 2009). […]
Quantity: MIC (µM)

{"Compound": "CCCCCOc1ccc(-c2nc(C)c(C(=O)N[C@@H](CCN)C(=O)N(C)[C@@H]3C(=O)N[C@@H](C)C(=O)N[C@H](C(=O)O)Cc4ccc(OCCN)c(c4)-c4cc3ccc4OCCN)c(C)n2)cc1 (racemic)", "Measured result": 64}
{"Compound": "Cc1nc(-c2ccc3c(c2)CCC3(C)C)nc(C)c1C(=O)N[C@@H](CCN)C(=O)N(C)[C@@H]1C(=O)N[C@@H](C)C(=O)N[C@H](C(=O)O)Cc2ccc(OCCN)c(c2)-c2cc1ccc2OCCN (racemic)", "Measured result": 64}
{"Compound": "Cc1nc(-c2ccc(C(C)(C)C)cc2)nc(C)c1C(=O)N[C@@H](CCN)C(=O)N(C)[C@@H]1C(=O)N[C@@H](C)C(=O)N[C@H](C(=O)O)Cc2ccc(O)c(c2)-c2cc1ccc2OCCN (racemic)", "Measured result": 69}

I = Cc1cc(-c2ccc(C(C)(C)C)cc2)nc(C)c1C(=O)N[C@@H](CCN)C(=O)N(C)[C@@H]1C(=O)N[C@@H](C)C(=O)N[C@H](C(=O)O)Cc2ccc(O)c(c2)-c2cc1ccc2OCCN (racemic)
II = COc1c(OC[C@H](O)CN)cc2cc1-c1cc(ccc1OC[C@H](O)CN)C[C@@H](C(=O)NCC#N)NC(=O)[C@H](C)NC(=O)[C@H]2N(C)C(=O)[C@H](CCN)NC(=O)c1c(C)nc(-c2ccc(C(C)(C)C)cc2)nc1C (racemic)
III = Cc1nc(-c2ccc(C(C)(C)C)cc2)nc(C)c1C(=O)N[C@@H](CCN)C(=O)N(C)[C@@H]1C(=O)N[C@@H](C)C(=O)N[C@H](C(=O)NCC#N)Cc2ccc(O)c(c2)-c2cc1ccc2OCCN (racemic)
Task item: List items by MIC in falling order. List the labels according to the requested ordering.
Reply: I, III, II
(I: 74 µM, III: 13 µM, II: 2 µM)

* * *

Test system: Klebsiella pneumoniae ATCC 700603
Assay: Serum MIC, broth micro-dilution
Format: cell-based
Details: Klebsiella pneumoniae, ATCC700603; 50% v/v mouse serum in Mueller Hinton II cation adjusted Broth, 35° C., 22 hours; Table 4; read-out: K pneumoniae 700603 Serum MIC
Protocol: In vitro antimicrobial activity of each compound was determined by measuring minimal inhibitor concentrations (MICs) using the broth micro-dilution technique as approved by the Clinical and Laboratory Standards Institute (CLSI) (Methods for Dilution Antimicrobial Susceptibility Tests for Bacteria that Grow Aerobically; Approved Standard—Eighth Edition. CLSI document M07-A8. Wayne, Pa.: Clinical and Laboratory Standards; 2009). […]
Quantity: MIC (µM)

{"Mol": "Cc1cc(C(C)(C)C)ccc1-c1nc(C)c(C(=O)N[C@@H](CNS(N)(=O)=O)C(=O)N(C)[C@@H]2C(=O)N[C@@H](C)C(=O)N[C@H](C(=O)O)Cc3ccc(OC[C@H](O)CN)c(c3)-c3cc2cc(OC[C@H](O)CN)c3O)c(N)n1", "Result units": "µM", "MIC": 1}

I = CCC(C)(C)c1ccc(-c2nc(C)c(C(=O)N[C@@H](CNS(N)(=O)=O)C(=O)N(C)[C@@H]3C(=O)N[C@@H](C)C(=O)N[C@H](C(=O)O)Cc4ccc(OC[C@H](O)CN)c(c4)-c4cc3cc(OC[C@H](O)CN)c4O)c(N)n2)cc1
II = Cc1c(C#N)c(-c2ccc(C(C)(C)C)cc2)nc(N)c1C(=O)N[C@@H](CNS(N)(=O)=O)C(=O)N(C)[C@@H]1C(=O)N[C@@H](C)C(=O)N[C@H](C(=O)O)Cc2ccc(OC[C@H](O)CN)c(c2)-c2cc1cc(OC[C@H](O)CN)c2O
III = Cc1nc(-c2ccc(C(C)(C)C)cc2O)nc(N)c1C(=O)N[C@@H](CCN)C(=O)N(C)[C@@H]1C(=O)N[C@@H](C)C(=O)N[C@H](C(=O)O)Cc2ccc(OC[C@H](O)CN)c(c2)-c2cc1cc(OC[C@H](O)CN)c2O
Task item: # desc sort on MIC across 3 compounds Provide your answer as the labels ordered per the instruction.
Reply: II, I, III
(II: 1 µM, I: 0.5 µM, III: 0.25 µM)

* * *

System: Pseudomonas aeruginosa PA01
Assay: Serum MIC, broth micro-dilution
Format: cell-based
Conditions: Pseudomonas aeruginosa, PA01; 50% v/v mouse serum in Mueller Hinton II cation adjusted Broth, 35° C., 22 hours; Table 4; read-out: P. aeruginosa 01 Serum MIC
Protocol: In vitro antimicrobial activity of each compound was determined by measuring minimal inhibitor concentrations (MICs) using the broth micro-dilution technique as approved by the Clinical and Laboratory Standards Institute (CLSI) (Methods for Dilution Antimicrobial Susceptibility Tests for Bacteria that Grow Aerobically; Approved Standard—Eighth Edition. CLSI document M07-A8. Wayne, Pa.: Clinical and Laboratory Standards; 2009). […]
Quantity: MIC (µM)

Use these answered entries as a reference point.
{"Mol": "Cc1nc(-c2ccc(C3CCC3)cc2)nc(N)c1C(=O)N[C@@H](CNS(N)(=O)=O)C(=O)N(C)[C@@H]1C(=O)N[C@@H](C)C(=O)N[C@H](C(=O)O)Cc2ccc(OC[C@H](O)CN)c(c2)-c2cc1cc(OC[C@H](O)CN)c2O", "Result units": "µM", "MIC": 16}
{"Mol": "Cc1nc(-c2ccc(C3(C)CC3)cc2)nc(C)c1C(=O)N[C@@H](CNS(N)(=O)=O)C(=O)N(C)[C@@H]1C(=O)N[C@@H](C)C(=O)N[C@H](C(=O)O)Cc2ccc(OC[C@H](O)CN)c(c2)-c2cc1cc(OC[C@H](O)CN)c2O", "Result units": "µM", "MIC": 8}

a = Cc1nc(-c2ccc(C(C)(C)C)cc2)ncc1C(=O)N[C@@H](CN)C(=O)N(C)[C@@H]1C(=O)N[C@@H](C)C(=O)N[C@H](C(=O)O)Cc2ccc(OC[C@H](O)CN)c(c2)-c2cc1cc(OC[C@H](O)CN)c2O
b = Cc1nc(-c2ccc(C(C)(C)C)cc2)nc(N)c1C(=O)N[C@@H](CNS(N)(=O)=O)C(=O)N(C)[C@@H]1C(=O)N[C@@H](C)C(=O)N[C@H](C(=O)O)Cc2ccc(OC[C@H](O)CN)c(c2)-c2cc1cc(OC[C@H](O)CN)c2O
Task item: Given a and b , report the one with the higher recorded MIC. Write the label of whichever entry you select.
Reply: a
(a: 48 µM, b: 3.3 µM)
